Tested target: BuChE (butyrylcholinesterase) (Homo sapiens, UniProt P06276)
Sequence (P06276 whole entry): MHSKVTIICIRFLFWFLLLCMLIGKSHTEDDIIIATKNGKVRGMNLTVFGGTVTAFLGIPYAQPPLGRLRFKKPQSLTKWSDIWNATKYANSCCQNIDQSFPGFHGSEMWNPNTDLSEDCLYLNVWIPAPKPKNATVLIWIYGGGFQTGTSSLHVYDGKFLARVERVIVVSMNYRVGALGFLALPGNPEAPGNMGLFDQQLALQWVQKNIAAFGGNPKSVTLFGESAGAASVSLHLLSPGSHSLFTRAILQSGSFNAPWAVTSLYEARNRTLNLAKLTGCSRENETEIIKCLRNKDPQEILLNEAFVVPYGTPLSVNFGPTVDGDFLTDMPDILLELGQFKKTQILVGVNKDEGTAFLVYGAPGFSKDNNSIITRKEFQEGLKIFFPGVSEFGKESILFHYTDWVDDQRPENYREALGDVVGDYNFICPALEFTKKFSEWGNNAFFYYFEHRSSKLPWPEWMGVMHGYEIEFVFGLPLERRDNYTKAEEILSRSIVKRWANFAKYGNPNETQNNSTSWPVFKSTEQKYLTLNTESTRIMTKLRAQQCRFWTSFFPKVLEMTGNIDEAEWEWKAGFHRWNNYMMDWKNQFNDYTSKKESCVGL
Assay procedure: Inhibition of human serum BuChE at 10 uM using S-butyrylthiocholine iodide as substrate preincubated for 6 mins followed by substrate addition measured up to 180 secs by Ellman's method relative to control
Experimental parameters: probe S-butyrylthiocholine iodide
Endpoint label: inhibition at 0.05 h, 10 µM

Cc1cc(=O)oc2cc(OCCCCCCSC(=S)N3CCCCC3)ccc12 | 6.21%

Fill in: inhibition at 0.05 h, 10 µM of Cc1cc(=O)oc2cc(OCCSC(=S)N3CCCCC3)ccc12 is ___
37.2%

Given the compound Cc1cc(=O)oc2cc(OCCCCCCCCSC(=S)N3CCCCC3)ccc12 , what is its reported inhibition at 0.05 h, 10 µM?
< 5%

Tell me the measured inhibition at 0.05 h, 10 µM of Cc1cc(=O)oc2cc(OCCSC(=S)N(CCO)CCO)ccc12 , please.
< 5%

For the compound shown here, Cc1cc(=O)oc2cc(OCCSC(=S)N3CCC(O)CC3)ccc12 , give the reported inhibition at 0.05 h, 10 µM.
< 5%

Sample Cc1cc(=O)oc2cc(OCCSC(=S)N3CCN(c4ncccn4)CC3)ccc12 — what was its inhibition at 0.05 h, 10 µM?
< 5%

* * *

Tested target: Acetylcholinesterase (Homo sapiens, UniProt P22303)
Sequence (P22303 whole entry): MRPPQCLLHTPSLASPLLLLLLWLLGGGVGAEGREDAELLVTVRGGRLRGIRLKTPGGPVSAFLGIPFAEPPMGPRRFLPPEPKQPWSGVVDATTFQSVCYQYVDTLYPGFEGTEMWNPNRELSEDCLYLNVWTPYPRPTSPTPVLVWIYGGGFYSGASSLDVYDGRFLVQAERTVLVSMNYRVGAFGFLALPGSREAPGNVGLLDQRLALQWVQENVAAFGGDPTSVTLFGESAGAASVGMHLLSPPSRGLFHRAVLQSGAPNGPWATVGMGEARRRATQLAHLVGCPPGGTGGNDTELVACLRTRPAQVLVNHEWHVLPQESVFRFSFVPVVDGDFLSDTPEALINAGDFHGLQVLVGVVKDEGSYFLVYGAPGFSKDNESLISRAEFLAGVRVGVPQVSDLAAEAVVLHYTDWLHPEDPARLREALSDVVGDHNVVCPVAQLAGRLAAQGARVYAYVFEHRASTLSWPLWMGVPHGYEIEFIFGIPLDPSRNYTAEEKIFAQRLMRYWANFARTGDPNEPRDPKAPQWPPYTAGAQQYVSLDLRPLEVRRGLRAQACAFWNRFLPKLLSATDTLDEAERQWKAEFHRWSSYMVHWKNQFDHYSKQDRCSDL
Assay procedure: Inhibition of human erythrocyte AChE at 10 uM using acetylthiocholine iodide as substrate preincubated for 6 mins followed by substrate addition measured up to 180 secs by Ellman's method relative to control
Endpoint label: inhibition

Cc1cc(=O)oc2cc(OCCCCCCCCSC(=S)N3CCCCC3)ccc12 | < 5%
Cc1cc(=O)oc2cc(OCCSC(=S)N3CCC(O)CC3)ccc12 | < 5%
Cc1cc(=O)oc2cc(OCCSC(=S)N3CCN(C4CC4)CC3)ccc12 | 18.7%
Cc1cc(=O)oc2cc(OCCSC(=S)N3CCOCC3)ccc12 | 11%
Cc1cc(=O)oc2cc(OCCSC(=S)N3CCN(c4ncccn4)CC3)ccc12 | 12.3%
Cc1cc(=O)oc2cc(OCCSC(=S)N(CCO)CCO)ccc12 | 34.5%

Next compound, inhibition to be filled in.
Need inhibition of Cc1cc(=O)oc2cc(OCCSC(=S)N3CCN(C)CC3)ccc12 , thanks.
36.8%
